System: Staphylococcus aureus ATCC 25923
test name: MIC by microdilution in liquid medium (CLSI / CA-SFM)
Format: cell-based
experimental context: Staphylococcus aureus, ATCC25923, S. aureus ATCC 25923, reference strain; read-out: MIC
Provide the reported MIC of each item.

So what MIC did N=C(N)CCc1ccc(OCCCCCCCCOc2ccc(CCC(=N)N)cc2)cc1 [compound 108] get with Staphylococcus aureus ATCC 25923?
2 µg/mL

Then this molecule: N=C(N)CCc1ccc(OCCCOc2ccc(CCC(=N)N)cc2)cc1 [compound 103]
32 µg/mL

Now the same for N=C(N)NCCc1ccc(OCCCCCCOc2ccc(CCNC(=N)N)cc2)cc1 [compound 6]
0.5 µg/mL

====

System: Pseudomonas aeruginosa ATCC 27853
test name: MIC by microdilution in liquid medium (CLSI / CA-SFM)
Type: cell-based
experimental context: ATCC27853, P. aeruginosa ATCC 27853, reference strain, read-out: MIC
parameter measured: MIC (µg/mL)
Value expressed in µg/mL; do not type the unit.

So what's the measured MIC for this one? `N=C(N)NCCc1ccc(OCCCCOc2ccc(CCNC(=N)N)cc2)cc1`
64

Would you kindly repeat that for `N=C(N)NCCc1ccc(OCCCCCCCOc2ccc(CCNC(=N)N)cc2)cc1` ?
16

Also need `N=C(N)CCc1ccc(OCCCCCCCOc2ccc(CCC(=N)N)cc2)cc1` , thanks.
64

Could you do the same for `N=C(N)CCc1ccc(OCCCCCCOc2ccc(CCC(=N)N)cc2)cc1` , please?
32

Ok, now `N=C(N)NCCc1ccc(OCCCCCCCCCOc2ccc(CCNC(=N)N)cc2)cc1`
4

Lookup `N=C(N)NCCc1ccc(OCCCCCCCCCCOc2ccc(CCNC(=N)N)cc2)cc1`
8

Try the compound `N=C(N)CCc1ccc(OCCCCCCCCCCOc2ccc(CCC(=N)N)cc2)cc1`
16

And for `[H]/N=C(\N/C(=N/[H])NCCCCCCNC(=N)NC(=N)Nc1ccc(Cl)cc1)Nc1ccc(Cl)cc1` ?
8

How about this compound: `N=C(N)NCCc1ccc(OCCCCCCOc2ccc(CCNC(=N)N)cc2)cc1`
16

Also `N=C(N)NCCc1ccc(OCCCOc2ccc(CCNC(=N)N)cc2)cc1` , if possible.
64

Subsequent entry: `N=C(N)NCCc1ccc(OCOc2ccc(CCNC(=N)N)cc2)cc1`
64

Again, but for `N=C(N)CCc1ccc(OCCCCCCCCOc2ccc(CCC(=N)N)cc2)cc1`
16

Could you do the same for `N=C(N)CCc1ccc(OCCCCOc2ccc(CCC(=N)N)cc2)cc1` , please?
64

Now consider `N=C(N)CCc1ccc(OCCCOc2ccc(CCC(=N)N)cc2)cc1` .
128

====

Record form. Attribute: CC50 at 24 h. Fill in for each entry.
test name: in vitro
Assay type: cell-based
experimental context: human

What CC50 at 24 h value was documented for this compound, `[H]/N=C(\N/C(=N/[H])NCCCCCCNC(=N)NC(=N)Nc1ccc(Cl)cc1)Nc1ccc(Cl)cc1` ?
8 to 16 µg/mL

Now consider `N=C(N)c1ccc(OCCCCCCOc2ccc(C(=N)N)cc2)cc1` .
8 to 16 µg/mL

Next entry: `N=C(N)NCCc1ccc(OCCCCCCOc2ccc(CCNC(=N)N)cc2)cc1`
4 to 8 µg/mL
